# Assay Notes: Solubility in 14 mM phosphate buffered saline pH 7.4 at 23° C.
# Type: physicochemical
# Particulars: aqueous buffer, 14 mM PBS pH 7.4, OD at 250 nm of supernatant, read-out: maximum solubility
# Procedure: The solubility of the two acetaminophen derivatives (Examples 9 and 10) in 14 mM phosphate buffered saline (PBS) pH 7.4 was determined and compared with the solubility of non-derivatized acetaminophen. It was determined that the two acetaminophen derivatives had much greater solubility than that of the non-derivatized acetaminophen. […] Method: The solubility of both derivatives was determined by continual addition, with agitation, of the derivatives to a known amount of buffer. […]
Measurement Kind: solubility (mg/mL)
Write down the numeric answer in mg/mL and omit the unit.

Use these answered entries as a reference point.
CC(=O)Nc1ccc(O)cc1 [acetaminophen, 4-acetamidophenol] = 7
CC(=O)Nc1ccc(O[C@@H]2C=C[C@H](O[C@H]3O[C@H](CO)[C@@H](O)[C@H](O)[C@H]3O)[C@@H](CO)O2)cc1 [Example 9] = 60

Turning now to a further record.
response.value for CC(=O)Nc1ccc(O[C@@H]2C=C[C@H](O[C@@H]3O[C@H](CO)[C@H](O)[C@H](O)[C@H]3O)[C@@H](CO)O2)cc1 [Example 10] (field: solubility) = 55
